Reference for the values: patent US20240092889A1

Tested on: T1, recombinant human C1r2s2 tetramer (human, UniProt P09871 16-688; P00736 18-705)
T1 construct: C1s and C1r co-expressed in HEK293/FreeStyle 293-F and purified from conditioned medium
T1 chain 1: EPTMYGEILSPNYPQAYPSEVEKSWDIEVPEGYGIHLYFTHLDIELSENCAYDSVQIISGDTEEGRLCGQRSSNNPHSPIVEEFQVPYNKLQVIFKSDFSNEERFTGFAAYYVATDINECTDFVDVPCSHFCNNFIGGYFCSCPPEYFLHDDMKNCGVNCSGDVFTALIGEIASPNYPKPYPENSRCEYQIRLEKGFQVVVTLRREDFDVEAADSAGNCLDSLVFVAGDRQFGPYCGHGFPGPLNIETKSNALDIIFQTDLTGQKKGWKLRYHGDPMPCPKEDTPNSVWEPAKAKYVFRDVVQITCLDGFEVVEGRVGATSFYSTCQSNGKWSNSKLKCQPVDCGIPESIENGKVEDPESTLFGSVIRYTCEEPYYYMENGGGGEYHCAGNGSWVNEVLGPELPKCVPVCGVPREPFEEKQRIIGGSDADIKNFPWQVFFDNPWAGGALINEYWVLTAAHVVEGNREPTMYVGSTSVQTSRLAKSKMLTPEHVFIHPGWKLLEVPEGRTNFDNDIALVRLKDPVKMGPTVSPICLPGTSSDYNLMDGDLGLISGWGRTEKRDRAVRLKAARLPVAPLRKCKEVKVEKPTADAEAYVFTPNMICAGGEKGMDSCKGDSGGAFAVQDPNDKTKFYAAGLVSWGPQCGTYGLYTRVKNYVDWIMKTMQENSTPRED
T1 chain 2: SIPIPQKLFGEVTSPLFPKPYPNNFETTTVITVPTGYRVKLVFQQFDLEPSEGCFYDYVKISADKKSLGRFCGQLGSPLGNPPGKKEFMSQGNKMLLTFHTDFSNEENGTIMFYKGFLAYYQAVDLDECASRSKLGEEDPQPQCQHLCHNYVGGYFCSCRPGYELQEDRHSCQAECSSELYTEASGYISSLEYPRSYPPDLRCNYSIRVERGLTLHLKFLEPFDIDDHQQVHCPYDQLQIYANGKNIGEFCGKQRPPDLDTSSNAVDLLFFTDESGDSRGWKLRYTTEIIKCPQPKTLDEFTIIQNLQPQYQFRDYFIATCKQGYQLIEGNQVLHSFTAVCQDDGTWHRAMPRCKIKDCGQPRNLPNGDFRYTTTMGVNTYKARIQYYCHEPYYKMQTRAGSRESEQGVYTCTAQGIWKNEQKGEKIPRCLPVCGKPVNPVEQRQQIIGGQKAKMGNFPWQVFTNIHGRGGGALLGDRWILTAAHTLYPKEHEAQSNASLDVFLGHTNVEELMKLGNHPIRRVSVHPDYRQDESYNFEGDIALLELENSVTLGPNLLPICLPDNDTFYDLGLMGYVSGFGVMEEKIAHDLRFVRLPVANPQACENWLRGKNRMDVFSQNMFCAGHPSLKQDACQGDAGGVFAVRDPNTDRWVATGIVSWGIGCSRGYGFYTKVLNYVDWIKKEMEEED
Assay method text: SPR (BIACORE T200), 37 C, ratio of KD at pH 5.8 to KD at pH 7.4
KD (pH 5.8)/KD (pH 7.4) values for the binders below.
Quantity name: KD (pH 5.8)/KD (pH 7.4)

INSERT INTO results (binder, number) VALUES
  ('COS0637pHv3-TT91R (antibody, V domains shown) VH: QVQLVESGGGVVQPGRSLRLSCAASGFTFSAYAMNWIRQPPGKGLEWIGLIYGSGHEFYASWAEERVTISVDTSKNQFSLKLSSVTAADTAVYYCARGRSKNYVSGFHLWGQGTLVTVSS VL: DIQMTQSPSSLSASVGDRVTITCQASQILHDKKNLAWYQQKPGQPPKLLIYQASQLESGVPSRFSGSGSGTDFTLTISSLQPEDFATYYCHGEFSYESADLNQFGQGTKVEIKR', 278),
  ('COS0637pHv7-TT91R (antibody, V domains shown) VH: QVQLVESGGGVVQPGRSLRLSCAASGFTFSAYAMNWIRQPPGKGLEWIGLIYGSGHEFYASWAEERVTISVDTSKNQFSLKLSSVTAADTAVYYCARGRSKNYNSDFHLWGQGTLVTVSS VL: DIQMTQSPSSLSASVGDRVTITCQASQILHDKKNLAWYQQKPGQPPKLLIYQASQLESGVPSRFSGSGSGTDFTLTISSLQPEDFATYYCHGEFSYSSADLNTFGQGTKVEIKR', 72),
  ('COS0637pHv8-TT91R (antibody, V domains shown) VH: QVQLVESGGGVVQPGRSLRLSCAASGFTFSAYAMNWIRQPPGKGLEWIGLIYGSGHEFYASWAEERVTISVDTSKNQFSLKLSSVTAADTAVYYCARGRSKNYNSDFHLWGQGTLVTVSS VL: DIQMTQSPSSLSASVGDRVTITCQANQILHDKKNLAWYQQKPGQPPKLLIYGASTLESGVPSRFSGSGSGTDFTLTISSLQPEDFATYYCHGEFSYSSADLNTFGQGTKVEIKR', 117);
